Just for reference, ChEMBL document CHEMBL1153955 is where these values come from.

Listed here: items and their measured IC50.
# Test System: Human immunodeficiency virus type 1 reverse transcriptase (Human immunodeficiency virus 1, UniProt Q72547, Y181I)
# Test Summary: Inhibition of HIV1 reverse transcriptase p66/p51 Y181I mutant
# Measurement Context: read-out: IC50
Value Type: IC50

- Molecule: "Cc1cc(C)cc(S(=O)(=O)c2c(C(N)=O)[nH]c3ccc(Cl)cc23)c1"
  Value Type: "IC50"
  Result: "140 nM"
- Molecule: "Cc1cc(C)cc(S(=O)(=O)c2c(C(=O)NC(C)CS(N)(=O)=O)[nH]c3ccc(Cl)cc23)c1 (stereo not given)"
  Value Type: "IC50"
  Result: "1940 nM"
- Molecule: "Cc1cc(C)cc(S(=O)(=O)c2c(C(=O)NCCS(N)(=O)=O)[nH]c3ccc([N+](=O)[O-])cc23)c1"
  Value Type: "IC50"
  Result: "> 40000 nM"
- Molecule: "Cc1cc(C)cc(S(=O)(=O)c2c(C(=O)NCCC(N)=O)[nH]c3ccc(Cl)cc23)c1"
  Value Type: "IC50"
  Result: "5060 nM"
- Molecule: "Cc1cc(C)cc(S(=O)(=O)c2c(C(N)=O)[nH]c3ccc(Cl)c(F)c23)c1"
  Value Type: "IC50"
  Result: "29 nM"
